- TEST_TARGET: PPARg:RXRa (Homo sapiens, UniProt P37231;P19793 full;full)
- Sequence (P37231 29-505, chain 1 of 2): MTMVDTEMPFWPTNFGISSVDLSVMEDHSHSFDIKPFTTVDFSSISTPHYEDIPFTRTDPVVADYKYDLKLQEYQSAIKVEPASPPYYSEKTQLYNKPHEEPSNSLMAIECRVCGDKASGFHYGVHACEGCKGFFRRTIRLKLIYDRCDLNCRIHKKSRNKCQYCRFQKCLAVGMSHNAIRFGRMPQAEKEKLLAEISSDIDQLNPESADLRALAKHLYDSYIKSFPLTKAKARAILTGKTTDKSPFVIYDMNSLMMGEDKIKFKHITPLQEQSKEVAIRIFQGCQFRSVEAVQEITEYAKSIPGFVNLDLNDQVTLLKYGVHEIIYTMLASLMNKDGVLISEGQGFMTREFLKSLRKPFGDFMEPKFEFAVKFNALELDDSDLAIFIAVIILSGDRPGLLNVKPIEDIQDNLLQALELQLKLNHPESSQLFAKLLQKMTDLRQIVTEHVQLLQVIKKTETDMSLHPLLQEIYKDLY
- Sequence (P19793 whole entry, chain 2 of 2): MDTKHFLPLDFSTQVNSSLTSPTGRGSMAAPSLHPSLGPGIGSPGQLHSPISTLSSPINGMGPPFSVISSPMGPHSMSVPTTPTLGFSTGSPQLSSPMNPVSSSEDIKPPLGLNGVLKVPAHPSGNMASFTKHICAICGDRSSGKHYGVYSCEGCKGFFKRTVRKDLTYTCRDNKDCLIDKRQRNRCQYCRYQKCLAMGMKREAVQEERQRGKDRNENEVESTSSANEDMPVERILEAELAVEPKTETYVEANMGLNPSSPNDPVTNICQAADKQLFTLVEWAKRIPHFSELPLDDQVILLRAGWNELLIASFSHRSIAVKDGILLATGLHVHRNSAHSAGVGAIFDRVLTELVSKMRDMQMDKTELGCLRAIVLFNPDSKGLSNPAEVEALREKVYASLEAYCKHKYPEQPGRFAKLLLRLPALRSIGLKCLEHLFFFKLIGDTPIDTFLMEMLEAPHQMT
- PROCEDURE_SUMMARY: no ligand; PBM; 180 nM : 90 nM RXRa; PBS pH 7.4, 2% milk, 0.02% Triton X-100, 1 mM DTT, BSA, 0.4 mg/ml salmon testes DNA
- COND: tags: His kept;His cleaved; copies: 1;1; label: surface-attached array probe
PROPERTY: binding signal

binder="NRC3_wobSeed47_DR1_G8T_o1 (dsDNA) DNA 1: GCGGAACTAGGGCAAAGTTGATAGCATCTGTCGACGGCGATTGACAGCGTAGAATGAAGG DNA 2: CCTTCATTCTACGCTGTCAATCGCCGTCGACAGATGCTATCAACTTTGCCCTAGTTCCGC" measurement="10 PBM z-score against 500 random probes"
